- system.tested: T1, Biotinylated human TSLP (human, biotinylated)
- T1 construct: also called hTSLP; thymic stromal lymphopoietin
- procedure.details: SPR, biotinylated hTSLP on streptavidin chip; Example 157, Ac-(SEQ ID NO: 115)
readout.label: Kd (µM)
Give the number; µM is assumed, so skip it.

Problem: Fill in the blank: the reported Kd of CQWLEDCWRGXC (not fully specified; N-term acetyl; CQWLEDCWRG[4-PyrA]C as printed; 3 Cys on TATA) [Example 157] is ____.
Result: 3.9
